- Test system: UACC-257 melanoma
- assay_notes: NCI tumour cell line growth inhibition, 48 h
Quick reference: TGI of the listed items.

# molecule, target_of_assay, TGI
rows = [
    ("O=C1N[C@@H]2CCC[C@@H]2[C@@H]1c1ccc(Cl)cc1", "UACC-257 melanoma", "> 100 µM"),
    ("O=P1(C(O)/C=C/c2ccccc2)N(Cc2ccccc2)[C@@H]2CCCC[C@H]2N1Cc1ccccc1 (some centres not stated)", "UACC-257 melanoma", "16.2 µM"),
    ("COc1ccc(C2C(Cl)C(=O)N2n2cnc3ccccc3c2=O)cc1OC (configuration not stated)", "UACC-257 melanoma", "> 100 µM"),
    ("N#CC(C#N)SCc1ccccc1", "UACC-257 melanoma", "> 100 µM"),
    ("Cn1cc(C2=C(c3cn(C)c4ccc(N)cc34)C(=O)NC2=O)c2ccccc21", "UACC-257 melanoma", "> 25 µM"),
    ("Cc1cc(N(CCNc2ccnc3cc(Cl)ccc23)Cc2ccc3c(c2)OCO3)nc(N2CCN(C)CC2)n1", "UACC-257 melanoma", "3.79 µM"),
    ("O=C1c2cccnc2S(=O)(=O)N1c1ccc([N+](=O)[O-])cc1", "UACC-257 melanoma", "> 100 µM"),
    ("CC1(C)C(=O)C(O)=CC2C1=CCC1C2(C)C(=O)CC2(C)C(C(C)(O)C(=O)CC(O)C(C)(C)O)C(O)CC12C (configuration not stated)", "UACC-257 melanoma", "30.2 µM"),
    ("COc1ccc(C2SC(N)=Nc3c2c(C)nn3C(=O)c2ccc(Cl)cc2)cc1OC (configuration not stated)", "UACC-257 melanoma", "> 10 µM"),
    ("C=C1C(=O)O[C@@H]2C[C@@]3(C)CC(=O)C=C(C)[C@@H]3C[C@H]12", "UACC-257 melanoma", "41.7 µM"),
    ("S=c1[nH]nc(Cn2c3ccc(Br)cc3c3nc4ccccc4nc32)n1C1CCCCC1", "UACC-257 melanoma", "> 100 µM"),
    ("Cc1cccc(NC(=O)c2sc3nc4c(cc3c2N)CCCC4)c1C", "UACC-257 melanoma", "> 100 µM"),
    ("COC(=O)c1ccc2c(c1)C(NC(C)=O)CCc1cc(OC)c(OC)c(OC)c1-2 (configuration not stated)", "UACC-257 melanoma", "> 100 µM"),
    ("N=C(N)SCc1cn2ccccc2n1", "UACC-257 melanoma", "> 100 µM"),
    ("O=c1[nH]c(=O)n(C2CC(O)C(CO)O2)cc1OC/C=C/Cc1ccccc1 (configuration not stated)", "UACC-257 melanoma", "> 100 µM"),
    ("C=C(C)C1CC2C(C)=C(OC(C)=O)C1n1c(=O)c3cc4ccccc4cc3c(=O)n12 (configuration not stated)", "UACC-257 melanoma", "> 100 µM"),
    ("C=C(C)[C@H]1CC(=O)/C(C)=C\\CC/C(C)=C/CC[C@@]2(C)O[C@@H]2C1", "UACC-257 melanoma", "> 100 µM"),
]

* * *

- System: SR leukemia
- assay_notes: NCI tumour cell line growth inhibition, 48 h
measured_attribute: TGI

# molecule, endpoint_value
rows = [
    ("N#Cc1ccc(-c2nc(C#N)c(N)o2)cc1", "> 10 µM"),
    ("COc1cc(-c2oc3ccccc3c(=O)c2O)cc(OC)c1OC", "> 24.8 µM"),
    ("CNC(=O)Nc1ccc(-c2nc(N3CCOCC3)nc3c2cnn3C2CCOCC2)cc1", "> 19.8 µM"),
    ("COc1ccc([C@H]2CC(=O)N3CCCC3N2)cc1 (stereo not given in full)", "> 100 µM"),
    ("Cc1nnc2n1-c1ccccc1N(Cc1ccccc1)CC2", "> 100 µM"),
    ("C/C(=N\\O)c1ccc(Nc2cc(-n3nnc4ccccc43)nc3ccccc23)cc1", "74.9 µM"),
    ("COc1ccc(C(=O)N2c3ccccc3Sc3ccccc32)c(F)c1", "> 100 µM"),
    ("COc1cc(-c2csc(NC(=O)c3cc(C(F)(F)F)cc(C(F)(F)F)c3)n2)cc(OC)c1OC", "11.6 µM"),
    ("COC1C(O)CC(OC2CC(Oc3cc4cc5c(c(O)c4c(O)c3C)C(=O)[C@@H](OC3CC(OC4CC(OC6CC(C)(O)C(OC(C)=O)C(C)O6)C(O)C(C)O4)C(O)C(C)O3)[C@H]([C@H](OC)C(=O)[C@@H](O)[C@@H](C)O)C5)OC(C)C2OC(C)=O)OC1C (stereo not given in full)", "0.000152 µM"),
    ("CS(=O)(=O)c1ccc(Cl)c([N+](=O)[O-])c1", "46.6 µM"),
    ("CCCCN1C(=O)CC2[C@@H]3CCc4cc(OC)ccc4C3CC[C@]2(C)C1=O (stereo not given in full)", "> 10 µM"),
    ("C[C@]12CC[C@@H]3c4ccc(O)c([N+](=O)[O-])c4CC[C@H]3[C@@H]1CC[C@@H]2NS(=O)(=O)c1ccc(C(F)(F)F)cc1", "4.14 µM"),
    ("CCOC(=O)/C=C(/C=C\\COC1CCCCO1)c1ccccc1 (stereo not given)", "53.8 µM"),
    ("Cc1cc(N(CCNc2ccnc3cc(Cl)ccc23)Cc2ccc3c(c2)OCO3)nc(N2CCN(C)CC2)n1", "4.43 µM"),
    ("NS(=O)(=O)c1ccc(N2Cc3cc(Cl)ccc3OC3=C2C(=O)N(CC2CCCCC2)C3=O)cc1", "0.839 µM"),
]
